meta.source: ChEMBL document CHEMBL1124678

System: L1210
Assay: The compound was tested in vitro for growth of inhibitory activity against lymphoid leukemia L1210 cells
Format: functional, cell-based, Mus musculus
Details: Mus musculus, L1210
Entries get a class label from measured IC50. See ranges: bottom: < 3 nM; middle: ≥ 3 nM and < 60 nM; top: ≥ 60 nM

>>> category_label("Nc1nccc2c1N=C(c1ccccc1)CN2")
"top"
>>> category_label("CCOC(=O)Nc1cc2c(c(N)n1)N=C(c1ccccc1)C(C)N2.Cl (stereo not drawn)")
"bottom"
>>> category_label("CCOC(=O)Nc1nc(NC(=O)OCC)c2c(c1N)NC(C)C(c1ccccc1)=N2 (stereo not drawn)")
"top"
>>> category_label("CNC(=O)Nc1cc2c(c(N)n1)N=C(c1ccccc1)C(C)N2 (stereo not drawn)")
"middle"
>>> category_label("CC1Nc2cc(NC(=O)OCc3ccccc3)nc(N)c2N=C1c1ccccc1 (stereo not drawn)")
"top"
>>> category_label("COC(=O)Nc1cc2c(c(N)n1)N=C(c1ccccc1)C(C)N2 (stereo not drawn)")
"bottom"
>>> category_label("CC1Nc2cc(N)nc(N)c2N=C1c1ccccc1 (stereo not drawn)")
"top"
>>> category_label("CC(=O)Nc1cc2c(c(NC(C)=O)n1)N=C(c1ccccc1)C(C)N2C(C)=O (stereo not drawn)")
"top"
>>> category_label("CC[C@]1(O)C[C@H]2CN(CCc3c([nH]c4ccccc34)[C@@](C(=O)OC)(c3cc4c(cc3OC)N(C=O)[C@H]3[C@@](O)(C(=O)OC)[C@H](OC(C)=O)[C@]5(CC)C=CCN6CC[C@]43[C@@H]65)C2)C1 [VINCRISTINE]")
"middle"
>>> category_label("COc1cc2c(c(OC)c1OC)-c1ccc(OC)c(=O)cc1[C@@H](NC(C)=O)CC2 [COLCHICINE]")
"middle"
>>> category_label("CCOC(=O)Nc1cc2c(c(NC(C)=O)n1)N=C(c1ccccc1)CN2")
"middle"
>>> category_label("CCC(C)OC(=O)Nc1cc2c(c(N)n1)N=C(c1ccccc1)C(C)N2 (stereo not drawn)")
"bottom"
>>> category_label("Nc1nc(NC(=O)OC2CCCCC2)cc2c1N=C(c1ccccc1)CN2")
"top"
